Value source: patent US20230220084A1

Biological target: human CLEC12A expressed on cells (human) (UniProt Q5QGZ9)
Sequence (Q5QGZ9 whole entry): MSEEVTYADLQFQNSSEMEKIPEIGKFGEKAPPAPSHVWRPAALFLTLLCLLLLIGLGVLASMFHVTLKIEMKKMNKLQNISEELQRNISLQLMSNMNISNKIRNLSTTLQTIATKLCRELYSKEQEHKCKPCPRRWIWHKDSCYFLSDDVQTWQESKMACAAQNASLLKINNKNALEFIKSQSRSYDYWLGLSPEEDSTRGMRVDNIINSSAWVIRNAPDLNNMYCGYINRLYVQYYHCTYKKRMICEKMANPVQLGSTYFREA
Experiment: flow cytometry, HL60 cells
assay.metric: Max binding MFI

For the binder shown here, AB0191 (bispecific antibody, part only; not given: Fc, unrelated binder arm, linkers, not shown: another chain or arm of the molecule; a dimerising Fc or GST; small tags and cut ends) scFv: EVQLVESGGGVVQPGGSLRLSCAASGFTFNSFGMHWVRQAPGKCLEWVAFISSGSTSIYYANTVKGRFTISRDNSKNTLYLQMNSLRAEDTAVYYCARDGYPTGGAMDYWGQGTSVTVSSGGGGSGGGGSGGGGSGGGGSDIQMTQSPSSLSASVGDRVTITCKASQDIYNYLSWFQQKPGKAPKPLIYRANILVSGVPSRFSGSGSGQDYTFTISSLQPEDIATYYCLQFDAFPFTFGCGTKLEIK , give the reported Max binding MFI.
420 MFI

Query AB0192 (bispecific antibody, part only; not given: Fc, unrelated binder arm, linkers, not shown: another chain or arm of the molecule; a dimerising Fc or GST; small tags and cut ends) scFv: EVQLVESGGGVVQPGGSLRLSCAASGFTFNAFGMHWVRQAPGKCLEWVAFISSGSTSIYYANTVKGRFTISRDNSKNTLYLQMNSLRAEDTAVYYCARDGYPTGGAMDYWGQGTSVTVSSGGGGSGGGGSGGGGSGGGGSDIQMTQSPSSLSASVGDRVTITCKASQDIYNYLSWFQQKPGKAPKPLIYRANILVSGVPSRFSGSGSGQDYTFTISSLQPEDIATYYCLQFDAFPFTFGCGTKLEIK next
503 MFI

And AB0186 (bispecific antibody, part only; not given: Fc, unrelated binder arm, linkers, not shown: another chain or arm of the molecule; a dimerising Fc or GST; small tags and cut ends) scFv: DIQMTQSPSSLSASVGDRVTITCKASQDIYNYLSWFQQKPGKAPKPLIYRANILVSGVPSRFSGSGSGQDYTFTISSLQPEDIATYYCLQFDAFPFTFGCGTKLEIKGGGGSGGGGSGGGGSGGGGSEVQLVESGGGVVQPGGSLRLSCAASGFTFNAFGMHWVRQAPGKCLEWVAFISSGSTSIYYANTVKGRFTISRDNSKNTLYLQMNSLRAEDTAVYYCARDGYPTGGAMDYWGQGTSVTVSS ?
412 MFI
